# system-name: Mitogen-activated protein kinase kinase kinase 5 (Homo sapiens) (UniProt Q99683)
# Sequence (Q99683 whole entry): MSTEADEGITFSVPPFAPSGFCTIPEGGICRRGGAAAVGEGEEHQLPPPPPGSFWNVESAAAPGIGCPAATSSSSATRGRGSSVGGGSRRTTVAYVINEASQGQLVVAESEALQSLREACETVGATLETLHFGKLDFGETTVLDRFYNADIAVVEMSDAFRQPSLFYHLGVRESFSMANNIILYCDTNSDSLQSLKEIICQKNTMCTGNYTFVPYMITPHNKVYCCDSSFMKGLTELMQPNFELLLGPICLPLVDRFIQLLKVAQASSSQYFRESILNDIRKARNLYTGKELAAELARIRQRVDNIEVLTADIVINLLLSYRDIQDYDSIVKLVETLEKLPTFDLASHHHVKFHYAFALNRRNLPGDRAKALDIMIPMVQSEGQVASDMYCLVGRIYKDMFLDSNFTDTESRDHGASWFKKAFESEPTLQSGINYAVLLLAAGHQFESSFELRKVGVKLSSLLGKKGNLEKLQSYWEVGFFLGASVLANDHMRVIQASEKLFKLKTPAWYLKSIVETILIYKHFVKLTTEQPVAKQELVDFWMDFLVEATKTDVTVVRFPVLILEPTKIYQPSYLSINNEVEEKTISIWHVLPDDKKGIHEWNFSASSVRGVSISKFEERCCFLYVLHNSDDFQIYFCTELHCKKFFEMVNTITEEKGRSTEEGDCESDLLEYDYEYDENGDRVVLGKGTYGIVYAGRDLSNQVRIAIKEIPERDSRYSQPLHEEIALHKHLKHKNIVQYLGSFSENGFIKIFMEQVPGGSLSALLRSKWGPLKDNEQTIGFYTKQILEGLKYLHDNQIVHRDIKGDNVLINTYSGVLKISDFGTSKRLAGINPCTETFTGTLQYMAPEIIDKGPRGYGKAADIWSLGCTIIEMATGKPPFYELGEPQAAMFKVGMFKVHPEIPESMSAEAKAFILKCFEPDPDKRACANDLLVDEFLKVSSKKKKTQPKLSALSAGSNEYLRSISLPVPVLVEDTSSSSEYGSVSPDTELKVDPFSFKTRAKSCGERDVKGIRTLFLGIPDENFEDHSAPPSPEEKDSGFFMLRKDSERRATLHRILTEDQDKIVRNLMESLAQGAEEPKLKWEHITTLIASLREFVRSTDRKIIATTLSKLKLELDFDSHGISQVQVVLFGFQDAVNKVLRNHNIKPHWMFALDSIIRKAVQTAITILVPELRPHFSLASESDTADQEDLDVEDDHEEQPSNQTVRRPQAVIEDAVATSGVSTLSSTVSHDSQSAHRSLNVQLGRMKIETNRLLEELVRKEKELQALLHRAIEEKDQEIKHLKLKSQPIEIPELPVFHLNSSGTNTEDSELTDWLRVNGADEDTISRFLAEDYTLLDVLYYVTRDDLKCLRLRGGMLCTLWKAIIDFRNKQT
# experimental-context: at 10 µM
Criterion: residual activity meeting or surpassing 80%. Met: TRUE. Not met: FALSE.

> print(dat)
                         structure.notation  label.class
1  O=C1NC(=O)C(c2cn(CCCn3ccnc3)c3ccccc23)=C1Nc1ccccc1        FALSE
2  O=C1Nc2ccc(Cl)cc2/C1=C/c1cc(Cl)c(O)c(Cl)c1         TRUE
3          O=c1cc(N2CCOCC2)oc2c1ccc1ccccc12         TRUE

Enquiry: residual activity >= 80% for `Nc1ncnc2[nH]nc(Nc3ccc(F)cc3)c12` ?
Return: TRUE

Enquiry: residual activity >= 80% for `CCN(CC)CCNC(=O)c1c(C)[nH]c(/C=C2\C(=O)Nc3ccc(Cl)cc32)c1C` ?
Return: FALSE
